outcome measure: melting point (°C)

# molecule, outcome measure, quantitative readout
rows = [
    ("CCCCCCCC(C)CC (stereo not drawn)", "melting point", -92.9),
    ("O=P1(NCCCl)OCCCN1CCCl (stereo not drawn)", "melting point", 40),
    ("CCC(C)(CC)OC(N)=O", "melting point", 56),
    ("Oc1c(I)cc(I)cc1I", "melting point", 160),
    ("COCC(=O)N(c1c(C)cccc1C)N1CCOC1=O", "melting point", 104),
    ("CS(=O)(=O)c1ccc(C(=O)O)cc1", "melting point", 270),
    ("CCC(=O)O[C@H]1CC[C@H]2[C@@H]3CCC4=CC(=O)CC[C@]4(C)[C@H]3CC[C@]12C", "melting point", 120),
    ("COc1ccc2c(=O)c(C)c(-c3ccccc3)oc2c1CN(C)C", "melting point", 110),
]

* * *

Parameter threshold = 100 °C. Response is Criterion met when melting point meets or exceeds it, else Criterion not met.

# compound, assigned class
measured = [
    ("C[C@]12C=CC(=O)C=C1CC[C@H]1[C@@H]3C[C@@H](O)[C@](O)(C(=O)CO)[C@@]3(C)C[C@H](O)[C@@]12F", "Criterion met"),
    ("COC(=O)c1ccc(O)cc1O", "Criterion met"),
    ("CC(C)(C)CCl", "Criterion not met"),
    ("O=[N+]([O-])c1cccc(C(F)(F)F)c1", "Criterion not met"),
    ("COC(=O)Nc1nc2ccc(C(=O)c3ccc(F)cc3)cc2[nH]1", "Criterion met"),
    ("COC(=O)C1C2C=CC(C2)C1C(=O)OC (stereo unspecified)", "Criterion not met"),
]

* * *

# compound, melting point
measured = [
    ("CCCCCCCCCCCCCCCCCC(=O)O", "68.8 °C"),
    ("NCCCCCCCCN", "52 °C"),
    ("O=C(O)C(=O)Nc1ccccc1", "150 °C"),
    ("CC1OC(OCC2OC(Oc3c(-c4ccc(O)cc4)oc4cc(OC5OC(C)C(O)C(O)C5O)cc(O)c4c3=O)C(O)C(O)C2O)C(O)C(O)C1O (stereo not drawn)", "250 °C"),
    ("C[C@]12CC[C@H](O)C[C@H]1CC[C@@H]1[C@@H]2CC[C@]2(C)[C@@H](C3=CC(=O)OC3)[C@@H](O)C[C@]12O", "234 °C"),
    ("C1CC12CC2", "-135 °C"),
    ("CCCCCCCCCCCCCCCCC(=O)O", "61.3 °C"),
    ("CC(=O)Nc1cccc(C(F)(F)F)c1", "104 °C"),
    ("N[C@@H](CC(=O)O)C(=O)O (racemic)", "272 °C"),
    ("Nc1cccc(O)c1", "123 °C"),
    ("O=C(Nc1ccccc1)C(=O)Nc1ccccc1", "254 °C"),
    ("O=C(OCCOC(=O)C(Cl)(Cl)Cl)C(Cl)(Cl)Cl", "40 °C"),
    ("Cc1c(C)c(C)c(O)c(C)c1C", "128 °C"),
    ("O=P1(N(CCCl)CCCl)NCCCO1 (stereo not drawn)", "51.5 °C"),
    ("Br.CCNCC", "219 °C"),
    ("N=C(N)NC(=N)NCCc1ccccc1", "176 °C"),
    ("O=C(O)C=Cc1ccccc1F", "179 °C"),
    ("COc1ccc2c(c1)CCCC2=O", "78 °C"),
    ("CNC(=O)Oc1cc(C(C)(C)C)cc(C(C)(C)C)c1", "103 °C"),
    ("Clc1c(Cl)c(Cl)c2c(oc3ccccc32)c1Cl", "169 °C"),
    ("FC(F)(F)C(Cl)(Cl)Cl", "14.2 °C"),
    ("CCCCCCCCCCCCCCCCCCCCCCC", "47.6 °C"),
    ("C=CCN=C=S", "-80 °C"),
    ("CCOP(=S)(OCC)Oc1cnc2ccccc2n1", "31.5 °C"),
    ("Clc1ccc2c(Cl)ccnc2c1", "93 °C"),
    ("FC(F)(F)Br", "-172 °C"),
    ("COc1cc2ccc(=O)oc2cc1OC", "146 °C"),
    ("O=C(C=CC(=O)Oc1ccccc1)Oc1ccccc1", "73 °C"),
    ("Cc1cc2ncn(C3OC(CO)C(O)C3O)c2cc1C (stereo not drawn)", "198 °C"),
    ("COc1cc2cc(c1Cl)N(C)C(=O)C[C@H](OC(=O)[C@H](C)N(C)C(C)=O)[C@]1(C)O[C@H]1[C@H](C)[C@@H]1C[C@@](O)(NC(=O)O1)C(OC)C=CC=C(C)C2 (stereo partly drawn)", "172 °C"),
    ("Cc1cccc(C)c1NC(=O)C1CCCCN1C (stereo not drawn)", "150 °C"),
    ("CCN(CC)CCNc1ccc(CO)c2sc3ccccc3c(=O)c12", "102 °C"),
    ("CCCCOC(=O)C(C)Oc1ccc(Oc2ccc(C(F)(F)F)cn2)cc1 (stereo not drawn)", "9 °C"),
    ("COc1ccc2[nH]cc(CCNC(C)=O)c2c1", "117 °C"),
    ("O=C(CCC(=O)OCc1ccccc1)OCc1ccccc1", "49.5 °C"),
    ("O=C1c2ccccc2C(=O)c2c1ccc([N+](=O)[O-])c2[N+](=O)[O-]", "341 °C"),
    ("CC(=O)N(O)CCCCCNC(=O)CCC(=O)N(O)CCCCCNC(=O)CCC(=O)N(O)CCCCCN", "140 °C"),
    ("CCCCN(C(C)=O)c1ccccc1", "24.5 °C"),
]

* * *

Consider the following compounds and their measured log10 Henry constant (atm·m³/mol) readings.

# compound, log10 Henry constant (atm·m³/mol)
measured = [
    ("Cc1cccc(O)c1", -6.07),
    ("Clc1ccc(-c2ccccc2)c(Cl)c1", -3.55),
    ("Nc1ccc([N+](=O)[O-])cc1Cl", -8.02),
    ("CCCCOC(C)=O", -3.55),
    ("c1cc2ccc3cccc4ccc(c1)c2c34", -4.92),
    ("FC(F)(F)C(Cl)Br (stereo not drawn)", -1.69),
    ("C[Si]1(C)O[Si](C)(C)O[Si](C)(C)O[Si](C)(C)O[Si](C)(C)O1", 1.52),
    ("CC(=O)OC(C)C", -3.56),
    ("C[Si]1(C)O[Si](C)(C)O[Si](C)(C)O[Si](C)(C)O1", 1.08),
    ("CCCC(=O)OC", -3.69),
    ("FC(F)(F)Br", -0.302),
    ("O=[N+]([O-])c1cccc2ccccc12", -5.75),
    ("Clc1ccc(-c2ccccc2)cc1", -3.24),
    ("O=[N+]([O-])c1ccccc1O", -4.89),
    ("OC1CCCCCCCCCCC1", -5.53),
    ("COP(=S)(OC)Oc1ccc([N+](=O)[O-])cc1", -7),
    ("CCOP(=S)(OCC)Oc1nc(Cl)c(Cl)cc1Cl", -5.53),
    ("CCCCC(=O)OC", -3.5),
    ("Clc1c(Cl)c(Cl)c2c(c1Cl)Oc1ccccc1O2", -4.7),
    ("C=C", -0.642),
    ("Clc1cc(Cl)cc(-c2ccccc2Cl)c1", -3.7),
    ("Cc1ccc(O)c(C)c1", -6.02),
    ("Clc1cccc(-c2ccccc2)c1Cl", -3.64),
    ("CCCCOCN(C(=O)CCl)c1c(CC)cccc1CC", -7.29),
    ("O=[N+]([O-])c1ccc(Cl)c(Cl)c1", -5.09),
    ("CC(C)OC(C)C", -2.59),
    ("CCC[N+](=O)[O-]", -4.06),
    ("ClC(Cl)=C(Cl)C(Cl)=C(Cl)Cl", -1.99),
    ("CCCCCCl", -1.62),
    ("CCCCC(CC)COC(=O)CCCCC(=O)OCC(CC)CCCC (stereo not drawn)", -6.36),
    ("Clc1cccc(-c2cccc(Cl)c2Cl)c1Cl", -4),
    ("OC(C(F)(F)F)C(F)(F)F", -4.37),
    ("c1ccc2c(c1)Cc1ccccc1-2", -4.02),
    ("Clc1cc(Cl)c(-c2ccc(Cl)c(Cl)c2)c(Cl)c1", -4.13),
    ("O=C1CCCCC1", -5.05),
    ("COC(=O)C(C)(C)C", -3.37),
    ("CCCCOC(=O)c1ccccc1C(=O)OCCCC", -5.74),
    ("C=Cc1ccccc1", -2.56),
    ("NC(=O)c1ccccc1", -9.61),
    ("CCCCCCCC=O", -3.29),
    ("C1CCCCC1", -0.824),
    ("CCCO", -5.13),
    ("O=[N+]([O-])c1ccc(F)cc1O", -4.71),
]
